Assay: gradient 5% acetonitrile 3 min, to 50% in 2 min, to 85% in 15 min, held 3 min, 100 µL/min
Details: column: Zorbax Extend-C18 2.1 x 50 mm; eluents: water / acetonitrile, 0.1% formic acid
Readout Name: RP-LC retention time (s)
Number only, in s; omit the unit.

As a guide, the following entries are already answered.
INSERT INTO results (compound, readout_name, result_number) VALUES
  ('CN(C)S(=O)(=O)c1ccc2c(c1)N(CC(=O)NCCc1ccccc1)C(=O)C1CCCCN21 (stereo unspecified)', 'RP-LC retention time', 918),
  ('O=C(NC1CC1)C1CCN(c2nc3ccc(-c4cccs4)nc3s2)CC1', 'RP-LC retention time', 809),
  ('Cc1nnc(SCCC(=O)Nc2nc(-c3ccccc3)ns2)s1', 'RP-LC retention time', 890);

[Q] What RP-LC retention time value was documented for this compound, Cc1ccc(C2Cn3cnc(C(=O)N4CCC(C(=O)NCc5cc(F)ccc5F)CC4)c3CO2)cc1 (stereo unspecified) ?
[A] 808

[Q] What RP-LC retention time value was documented for this compound, CC(Oc1ccc(Cl)cc1)C(=O)N1CCCN(c2cc(-c3ccc(Br)cc3)[nH]n2)CC1 (stereo unspecified) ?
[A] 892

[Q] What RP-LC retention time value was documented for this compound, `O=C(Cn1cc(S(=O)(=O)N2CCCCCC2)ccc1=O)N1CCCc2ccccc21` ?
[A] 900

[Q] What RP-LC retention time value was documented for this compound, `COc1cc(NC(=O)Cc2csc3nc(-c4ccccc4)cn23)cc(OC)c1` ?
[A] 795

[Q] What RP-LC retention time value was documented for this compound, `CCOCC(=O)Nc1ccc(-c2cn3c(C(=O)N(C)C)csc3n2)cc1` ?
[A] 647

[Q] What RP-LC retention time value was documented for this compound, `O=C(C(Cl)Cl)N1CC2CCC(CC2)C1` ?
[A] 956

[Q] What RP-LC retention time value was documented for this compound, `COc1ccccc1N1CCN(CCN(C(=O)C2CCCCC2)c2ccccn2)CC1` ?
[A] 816

[Q] What RP-LC retention time value was documented for this compound, `COc1cccc(CNc2ncc(C(=O)O)c(C(C)C)n2)c1` ?
[A] 851

[Q] What RP-LC retention time value was documented for this compound, COCCN1C(=O)c2cc(-c3ccccc3)nn2CC1(C)C(=O)NCc1ccccc1 (stereo unspecified) ?
[A] 842

[Q] What RP-LC retention time value was documented for this compound, O=C(NC1CCN(c2ccccc2)C1=O)c1cccc(Br)c1 (stereo unspecified) ?
[A] 855

[Q] What RP-LC retention time value was documented for this compound, COc1ccc2c(c1)[C@H]1OCCC[C@H]1C(c1ccc(C(=O)O)cc1)N2 (stereo partly specified) ?
[A] 820

[Q] What RP-LC retention time value was documented for this compound, `COC[C@@H]1CN(Cc2cccc(OC)c2OC)C[C@H]1c1ccncc1` ?
[A] 656

[Q] What RP-LC retention time value was documented for this compound, `CCCC(=O)Nc1ccc2c(c1)N(C(=O)c1ccco1)CCC2` ?
[A] 604

* * *

Test: gradient 5% acetonitrile 3 min, to 50% in 2 min, to 85% in 15 min, held 3 min, 100 µL/min
Details: column: Zorbax Extend-C18 2.1 x 50 mm; eluents: water / acetonitrile, 0.1% formic acid
Readout Name: RP-LC retention time (s)
Number only, in s; omit the unit.

[Q] What RP-LC retention time value was documented for this molecule, Cc1cc(C)c(NC(=O)C2CCCN(c3nc4ccccc4nc3C(F)(F)F)C2)c(C)c1 (configuration not stated) ?
[A] 701

[Q] What RP-LC retention time value was documented for this molecule, `O=C(c1cccnc1)N1CCN(c2cc(-c3cccs3)[nH]n2)CC1` ?
[A] 616

[Q] What RP-LC retention time value was documented for this molecule, `CC(=O)[C@@]1(O)CC[C@H]2[C@@H]3C[C@H](C)C4=CC(=O)C=C[C@]4(C)[C@@]3(F)[C@@H](O)C[C@@]21C` ?
[A] 844

[Q] What RP-LC retention time value was documented for this molecule, `CC(C)(C)NC(=O)c1ccc(C(=O)NC(C)(C)C)cc1` ?
[A] 840

[Q] What RP-LC retention time value was documented for this molecule, `CCCCCCC(=O)Nc1nc(-c2ccc(C)cc2)cs1` ?
[A] 1190

[Q] What RP-LC retention time value was documented for this molecule, O=C(CCC1CCCN(S(=O)(=O)c2ccc(F)cc2)C1)NC1CCS(=O)(=O)C1 (configuration not stated) ?
[A] 731

[Q] What RP-LC retention time value was documented for this molecule, `Cc1c(C(=O)N2CCC(C)CC2)cnn1-c1cc(-c2nc(C(C)(C)C)no2)ccn1` ?
[A] 1240
